Give Kochia plant response rating for every item shown.
test system: kochia (Kochia scoparia); experiment: Test A postemergence application, visual injury rating; assay type: in vivo; conditions: 500 g ai/ha, 0 to 100 scale, 0 no effect, 100 complete control
One number for each entry.

// worked examples, Kochia plant response rating included
| smiles text | Kochia plant response rating |
| --- | --- |
| Cc1ccc2ccoc2c1-c1c(O)c(C)nn(C)c1=O | 100 |
| Cc1cnc2sc(C)c(-c3c(OC(=O)C4CC4)c(C)nn(C)c3=O)c2c1 | 50 |
| Cc1nn(C)c(=O)c(-c2cccc3sccc23)c1O | 70 |

Record Kochia plant response rating per entry; entries follow.
1. CCOC(=O)Oc1c(C)nn(C)c(=O)c1-c1c(C)sc2ncccc12
2. Cc1nn(C)c(=O)c(-c2cccc3scnc23)c1O
3. CCOC(=O)Oc1c(C)nn(C)c(=O)c1-c1c(CC)sc2ncccc12
4. CCc1sc2ncccc2c1-c1c(OC(=O)C2CC2)c(C)nn(C)c1=O
5. Cc1nn(C)c(=O)c(-c2c(C)sc3ncccc23)c1O

Data returned:
[0, 0, 0, 0, 0]

Data request: Quickly give me recorded Kochia plant response rating for "CCC(=O)Oc1c(C)nn(C)c(=O)c1-c1ccc(Cl)c2oc(C)cc12"
Data returned: 20

----------
system: blackgrass (Alopecurus myosuroides); assay: Test A postemergence application, visual injury rating; assay type: in vivo; conditions: 31 g ai/ha, 0 to 100 scale, 0 no effect, 100 complete control
property name: Blackgrass plant response rating
One number for each entry.

// worked examples, Blackgrass plant response rating included
| smiles text | Blackgrass plant response rating |
| --- | --- |
| COC(=O)Oc1c(C)nn(C)c(=O)c1-c1ccc(Cl)c2sccc12 | 0 |
| Cc1cc2c(Cl)ccc(-c3c(OC(=O)c4ccccc4)c(C)nn(C)c3=O)c2o1 | 0 |
| CCC(=O)Oc1c(C)nn(C)c(=O)c1-c1ccc(Cl)c2ccsc12 | 0 |
| CC(=O)Oc1c(Cl)nn(C)c(=O)c1-c1cccc2cccnc12 | 10 |
| CCC(=O)Oc1c(C)nn(C)c(=O)c1-c1c(C)ccc2cc(C)oc12 | 30 |
| CCC(=O)Oc1c(C)nn(C)c(=O)c1-c1ccc(Cl)c2sccc12 | 0 |
| Cc1cc2c(Cl)ccc(-c3c(O)c(C)nn(C)c3=O)c2o1 | 0 |
| COC(=O)Oc1c(C)nn(C)c(=O)c1-c1ccc(Cl)c2ccsc12 | 0 |
| COC(=O)Oc1c(C)nn(C)c(=O)c1-c1cccc2cc(C)oc12 | 0 |
| Cn1nc(Cl)c(O)c(-c2cccc3[nH]nnc23)c1=O | 0 |

Record Blackgrass plant response rating per entry; entries follow.
1. Cn1ncc(O)c(-c2cccc3cnccc23)c1=O
2. CC(=O)Oc1c(C)nn(C)c(=O)c1-c1ccc(Cl)c2cc(C)oc12
3. CCC(=O)Oc1c(C)nn(C)c(=O)c1-c1ccc(Cl)c2cc(C)oc12

Data returned:
1. 0
2. 20
3. 20

----------
tested on: ragweed (common ragweed, Ambrosia elatior); experiment: Test A postemergence application, visual injury rating; type: in vivo; details: 125 g ai/ha, 0 to 100 scale, 0 no effect, 100 complete control
Give Ragweed plant response rating for every item shown.
Answers are plain numbers.

// worked examples, Ragweed plant response rating included
| molecule | property name | reading |
| --- | --- | --- |
| Cc1cnc2sc(C)c(-c3c(OC(=O)OC(C)C)c(C)nn(C)c3=O)c2c1 [Compound 6] | Ragweed plant response rating | 10 |
| CCC(=O)Oc1c(C)nn(C)c(=O)c1-c1c(C(F)(F)F)ccc2cc(C)oc12 [Compound 47] | Ragweed plant response rating | 80 |
| CCC(=O)Oc1c(C)nn(C)c(=O)c1-c1c(C)ccc2sccc12 [Compound 31] | Ragweed plant response rating | 70 |
| CCC(=O)Oc1c(C)nn(C)c(=O)c1-c1c(C)ccc2cc(C)oc12 [Compound 22] | Ragweed plant response rating | 90 |
| Cc1cc2c(Cl)ccc(-c3c(O)c(C)nn(C)c3=O)c2o1 [Compound 43] | Ragweed plant response rating | 20 |

Record Ragweed plant response rating per entry; entries follow.
1. Cc1cc2c(-c3c(OC(=O)c4ccccc4)c(C)nn(C)c3=O)ccc(Cl)c2o1 [Compound 44]
2. CCC(=O)Oc1c(C)nn(C)c(=O)c1-c1ccc(Cl)c2cc(C)oc12 [Compound 41]
3. Cc1nn(C)c(=O)c(-c2ccc(Cl)c3sccc23)c1O [Compound 63]
4. Cc1cnc2sc(C)c(-c3c(OC(=O)C4CC4)c(C)nn(C)c3=O)c2c1 [Compound 9]

Data returned:
0
80
0
10

Record Ragweed plant response rating per entry; entries follow.
1. CCc1sc2ncccc2c1-c1c(O)c(C)nn(C)c1=O [Compound 18]
2. COC(=O)Oc1c(C)nn(C)c(=O)c1-c1ccc(Cl)c2sccc12 [Compound 59]
3. CCc1sc2ncccc2c1-c1c(OC(=O)OC(C)C)c(C)nn(C)c1=O [Compound 20]

Data returned:
[0, 0, 0]

Record Ragweed plant response rating per entry; entries follow.
1. CC(=O)Oc1c(Cl)nn(C)c(=O)c1-c1cccc2cccnc12 [Compound 71]
2. Cc1cc2ccc(C(F)(F)F)c(-c3c(O)c(C)nn(C)c3=O)c2o1 [Compound 49]
3. COc1ncc(-c2c(O)c(C)nn(C)c2=O)c2ccccc12 [Compound 16]
4. Cc1nn(C)c(=O)c(-c2c(C)sc3ncccc23)c1OC(=O)OC(C)C [Compound 15]
5. Cc1nn(C)c(=O)c(-c2ccc(Cl)c3sccc23)c1OC(=O)c1ccccc1 [Compound 57]
6. Cc1nn(C)c(=O)c(-c2c(C)sc3ncccc23)c1OC(=O)C1CC1 [Compound 23]
7. CCC(=O)Oc1c(C)nn(C)c(=O)c1-c1ccc(Cl)c2sccc12 [Compound 58]
8. Cn1nc(Cl)c(O)c(-c2cccc3c2nnn3C)c1=O [Compound 61]

Data returned:
1. 70
2. 90
3. 30
4. 0
5. 0
6. 0
7. 0
8. 0

Data request: Quickly give me recorded Ragweed plant response rating for Cc1nn(C)c(=O)c(-c2c(Br)ccc3c2cnn3C)c1O [Compound 65]
Data returned: 0

----------
Give Barnyardgrass plant response rating for every item shown.
system: barnyardgrass (Echinochloa crus-galli); assay: Test A postemergence application, visual injury rating; type: in vivo; conditions: 31 g ai/ha, 0 to 100 scale, 0 no effect, 100 complete control
Give bare numbers.

| smiles text | target desc | Barnyardgrass plant response rating |
| --- | --- | --- |
| CC(=O)Oc1c(C)nn(C)c(=O)c1-c1c(C(F)(F)F)ccc2cc(C)oc12 | barnyardgrass (Echinochloa crus-galli) | 0 |
| Cc1cc2c(-c3c(OC(=O)c4ccccc4)c(C)nn(C)c3=O)ccc(Cl)c2o1 | barnyardgrass (Echinochloa crus-galli) | 0 |
| Cc1cc2c(-c3c(O)c(C)nn(C)c3=O)c(C)ccc2s1 | barnyardgrass (Echinochloa crus-galli) | 30 |
| Cc1nn(C)c(=O)c(-c2ccc(Cl)c3sccc23)c1O | barnyardgrass (Echinochloa crus-galli) | 0 |

Record Barnyardgrass plant response rating per entry; entries follow.
1. Cc1nn(C)c(=O)c(-c2c(Br)ccc3c2cnn3C)c1O
2. COC(=O)Oc1c(C)nn(C)c(=O)c1-c1ccc(Cl)c2ccsc12

Data returned:
1. 0
2. 0

Record Barnyardgrass plant response rating per entry; entries follow.
1. Cc1ccc2sc(Cl)cc2c1-c1c(O)c(C)nn(C)c1=O
2. Cn1nc(Cl)c(O)c(-c2cccc3[nH]nnc23)c1=O
3. Cc1cc2c(Cl)ccc(-c3c(OC(=O)c4ccccc4)c(C)nn(C)c3=O)c2o1
4. Cc1nn(C)c(=O)c(-c2ccc(Cl)c3ccsc23)c1O
5. COC(=O)Oc1c(C)nn(C)c(=O)c1-c1c(C)ccc2cc(C)oc12
6. Cc1cc2c(Cl)ccc(-c3c(O)c(C)nn(C)c3=O)c2o1
7. Cn1nc(Cl)c(O)c(-c2ccc(F)c3ccoc23)c1=O

Data returned:
[10, 0, 0, 0, 10, 0, 10]

Record Barnyardgrass plant response rating per entry; entries follow.
1. COC(=O)Oc1c(C)nn(C)c(=O)c1-c1cccc2cc(C)oc12
2. COC(=O)Oc1c(C)nn(C)c(=O)c1-c1ccc(Cl)c2sccc12
3. Cn1nc(Cl)c(O)c(-c2cccc3c2nnn3C)c1=O
4. Cc1cc2ccc(C(F)(F)F)c(-c3c(O)c(C)nn(C)c3=O)c2o1
5. CCC(=O)Oc1c(C)nn(C)c(=O)c1-c1c(C(F)(F)F)ccc2cc(C)oc12
6. Cn1ncc(O)c(-c2cccc3cnccc23)c1=O

Data returned:
0
0
0
0
0
0

----------
system: wheat (Triticum aestivum); assay: Test A postemergence application, visual injury rating; assay type: in vivo; settings: Triticum aestivum, post-emergence, 240 h, 500 g ai/ha, 0 to 100 scale, 0 no effect, 100 complete control, read-out: Wheat plant response rating
Give plant injury at 500 g/ha for every item shown.
Numbers only, in %.

// worked examples, plant injury at 500 g/ha included
| molecule | plant injury at 500 g/ha / % |
| --- | --- |
| Cc1nn(C)c(=O)c(-c2cccc3snc(C)c23)c1O [Compound 25] | 30 |
| Cc1cc2cccc(-c3c(O)c(C)nn(C)c3=O)c2o1 [Compound 12] | 20 |
| CC(=O)Oc1c(C)nn(C)c(=O)c1-c1c(C)ccc2cc(C)oc12 [Compound 11] | 40 |
| Cc1ccc2sccc2c1-c1c(O)c(C)nn(C)c1=O [Compound 29] | 30 |
| CCOC(=O)Oc1c(C)nn(C)c(=O)c1-c1c(C)ccc2sccc12 [Compound 30] | 30 |

Record plant injury at 500 g/ha per entry; entries follow.
1. Cc1cc2ccc(C)c(-c3c(O)c(C)nn(C)c3=O)c2o1 [Compound 10]
2. CC(=O)Oc1c(C)nn(C)c(=O)c1-c1cccc2cc(C)oc12 [Compound 13]

Data returned:
1: 60; 2: 20
